- SUBJECT_OF_TEST: recombinant HIV-1 RTase (Human immunodeficiency virus type 1 group M subtype B)
- EXPERIMENT_DESCRIPTION: In vitro RTase assay
- ASSAY_CONDITIONS: IC50 against RTase, 0.5 unit RTase, 1 h, 24 °C

MOLECULE | MEASURE_UNIT | IC50
Cc1nn(C(C)c2nnc(Nc3ccn(Cc4ccccc4)n3)s2)c(C)c1Br (stereo not shown) | µM | 0.14

* * *

- Tested on: HIV-1JRCSF
- EXPERIMENT_DESCRIPTION: Antiviral activity, TZM-bl reporter cells, F-Luc
- Assay type: cell-based
- ASSAY_CONDITIONS: Human immunodeficiency virus 1, TZM-bl, read-out: EC50 (1:5 dilution)
pEC50: −log10 of the molar value.
READOUT_KIND: pEC50

MOLECULE | SUBJECT_OF_TEST | ENDPOINT_VALUE
Cc1nn(C(C)c2nnc(Nc3ccn(Cc4ccccc4)n3)s2)c(C)c1Br (stereo not shown) | HIV-1JRCSF | 6.80
